system: SW 1271 complex spheroids, viability; assay: Anticancer human tumor SW 1271 cell line growth inhibition [LSD1]; details: second compound 0.1 µM; first compound 0.000949 µM; stronger effect = lower value;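 further: spheroids exposed to agents for 7 days before luminescence read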;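 on viability, T/C: 100% = DMSO vehicle control viability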
Observable: viability, T/C (%)
Hi! Could you send only the number? It should be in %, unit omitted.

These recorded examples may help you get a feel for the data.
| Molecule | Experimental target | Numeric readout |
| --- | --- | --- |
| CCc1c2c(nc3ccc(O)cc13)-c1cc3c(c(=O)n1C2)COC(=O)[C@]3(O)CC + NC1CC1c1ccc(-c2cccc(O)c2)cc1 | SW 1271 complex spheroids, viability | 48.1 |
| Nc1ncn(C2CC(O)C(CO)S2)c(=O)n1 (stereo unspecified) + NC1CCC(NC2CC2c2ccccc2)CC1 | SW 1271 complex spheroids, viability | 97.4 |
| Nc1ncn(C2CC(O)C(CO)S2)c(=O)n1 (stereo unspecified) + NC1CC1c1ccc(-c2cccc(O)c2)cc1 | SW 1271 complex spheroids, viability | 90.1 |
| Nc1ccn(C2OC(CO)C(O)C2(F)F)c(=O)n1 (stereo unspecified) + NC1CC1c1ccc(-c2cccc(O)c2)cc1 | SW 1271 complex spheroids, viability | 76.7 |
| Nc1ccn(C2OC(CO)C(O)C2(F)F)c(=O)n1 (stereo unspecified) + NC1CCC(NC2CC2c2ccccc2)CC1 | SW 1271 complex spheroids, viability | 83.3 |

Turning to the following molecule.
Input: Query viability, T/C for CCc1c2c(nc3ccc(O)cc13)-c1cc3c(c(=O)n1C2)COC(=O)[C@]3(O)CC + NC1CCC(NC2CC2c2ccccc2)CC1
Output: 59.3

###

test system: SW 1271 complex spheroids, viability; assay: Anticancer human tumor SW 1271 cell line growth inhibition [LSD1]; conditions: curve of first compound; second compound 1 µM;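 further: spheroids exposed to agents for 7 days before luminescence read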
Entries and their IC50 values follow.
Hi! Could you send only the number? It should be in nM, unit omitted.

These recorded examples may help you get a feel for the data.
| Molecule | Experimental target | Uom | IC50 |
| --- | --- | --- | --- |
| CC1COCCN1c1cc(-c2ccnn2C)c2ccnc(-c3ccn[nH]3)c2n1 (stereo not given) + NC1CCC(NC2CC2c2ccccc2)CC1 | SW 1271 complex spheroids, viability | nM | 55.3 |
| O=C(c1cc(Cc2n[nH]c(=O)c3ccccc23)ccc1F)N1CCN(C(=O)C2CC2)CC1 + NC1CC1c1ccc(-c2cccc(O)c2)cc1 | SW 1271 complex spheroids, viability | nM | 6290 |
| Nc1ccccc1NC(=O)c1ccc(CNC(=O)OCc2cccnc2)cc1 + NC1CCC(NC2CC2c2ccccc2)CC1 | SW 1271 complex spheroids, viability | nM | 153 |

Input: Please tell me the measured IC50 for O=C(C=Cc1cccc(S(=O)(=O)Nc2ccccc2)c1)NO + NC1CCC(NC2CC2c2ccccc2)CC1 ; system: SW 1271 complex spheroids, viability.
Output: 88.5

Input: Please tell me the measured IC50 for CC[C@@]1(O)C(=O)OCc2c1cc1n(c2=O)Cc2cc3c(CN(C)C)c(O)ccc3nc2-1 + NC1CCC(NC2CC2c2ccccc2)CC1 ; system: SW 1271 complex spheroids, viability.
Output: 66.1

###

test system: SW 1271 complex spheroids, viability; assay: Anticancer human tumor SW 1271 cell line growth inhibition [LSD1]; conditions: second compound 1 µM; first compound 0.0316 µM; stronger effect = lower value;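 further: spheroids exposed to agents for 7 days before luminescence read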;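 on viability, T/C: 100% = DMSO vehicle control viability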
Observable: viability, T/C (%)
Hi! Could you send only the number? It should be in %, unit omitted.

These recorded examples may help you get a feel for the data.
| Compound | Observable | Uom | Numeric readout |
| --- | --- | --- | --- |
| Nc1ncn(C2CC(O)C(CO)O2)c(=O)n1 (configuration not stated) + NC1CCC(NC2CC2c2ccccc2)CC1 | viability, T/C | % | 75.9 |
| O=C(C=Cn1cnc(-c2cc(C(F)(F)F)cc(C(F)(F)F)c2)n1)NNc1cnccn1 + NC1CC1c1ccc(-c2cccc(O)c2)cc1 | viability, T/C | % | 69.5 |

Input: Query viability, T/C for COc1ccc([C@@H](O)c2cc(-c3ncnc4cc(N5CCOCC5)ccc34)c(F)cc2Cl)nn1 + NC1CCC(NC2CC2c2ccccc2)CC1
Output: 75

Input: Query viability, T/C for CC1COCCN1c1cc(-c2ccnn2C)c2ccnc(-c3ccn[nH]3)c2n1 (configuration not stated) + NC1CC1c1ccc(-c2cccc(O)c2)cc1
Output: 55.4
